tested on: 616215-338-R-J1-PDC complex spheroids, viability % test/control; assay: Anticancer human tumor 616215-338-R-J1-PDC patient-derived colon adenocarcinoma cell line growth inhibition [CLK]; conditions: second compound 3.16 µM; first compound 0.0316 µM; stronger effect = lower value
Exercise: for every item that follows, state its recorded viability, T/C.
Give just the number in %; leave the unit off.

# input Query (molecule): COc1ccc([C@@H](O)c2cc(-c3ncnc4cc(N5CCOCC5)ccc34)c(F)cc2Cl)nn1 + CN1CCN(c2cc(C(=O)Nc3cc4cc(-c5cnn(C)c5)ccc4cn3)ccn2)CC1 ; field requested: viability, T/C
# output 0.09

# input Query (molecule): COc1cccc2c1C(=O)c1c(O)c3c(c(O)c1C2=O)CC(O)(C(=O)CO)CC3OC1CC(N)C(O)C(C)O1 (stereo not given) + CNC(=O)c1ccc(Nc2nc(OC3CCCC3)c3c(-c4ccc5nc(C)oc5c4)c[nH]c3n2)c(OC)c1 ; field requested: viability, T/C
# output 61.8

# input Query (molecule): CC1COCCN1c1cc(C2(S(C)(=N)=O)CC2)nc(-c2ccnc3[nH]ccc23)n1 (stereo not given) + CN1CCN(c2cc(C(=O)Nc3cc4cc(-c5cnn(C)c5)ccc4cn3)ccn2)CC1 ; field requested: viability, T/C
# output 0.14

# input Query (molecule): CCc1c2c(nc3ccc(O)cc13)-c1cc3c(c(=O)n1C2)COC(=O)[C@]3(O)CC + CN1CCN(c2cc(C(=O)Nc3cc4cc(-c5cnn(C)c5)ccc4cn3)ccn2)CC1 ; field requested: viability, T/C
# output 1.53

# input Query (molecule): CC(Nc1ccc2c(c1)OCCn1cc(N3C(=O)OCC3C(F)F)nc1-2)C(N)=O (stereo not given) + CN1CCN(c2cc(C(=O)Nc3cc4cc(-c5cnn(C)c5)ccc4cn3)ccn2)CC1 ; field requested: viability, T/C
# output 0.11

###

Exercise: for every item that follows, state its recorded viability, T/C.
test system: 616215-338-R-J1-PDC complex spheroids, viability % test/control; test: Anticancer human tumor 616215-338-R-J1-PDC cell line growth inhibition [CLK]; settings: second compound 0.316 µM; first compound 0.316 µM; stronger effect = lower value;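 note: spheroids exposed to agents for 7 days; 100% = DMSO vehicle wells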
Give just the number in %; leave the unit off.

# input Form: Entry = C=C(F)C(=O)N1CCN(c2nc(OCC3CCCN3C)nc3c2CCN(c2cccc4cccc(Cl)c24)C3)CC1CC#N (stereo not given) + CN1CCN(c2cc(C(=O)Nc3cc4cc(-c5cnn(C)c5)ccc4cn3)ccn2)CC1 | System = 616215-338-R-J1-PDC complex spheroids, viability % test/control | viability, T/C = ____
# output 40.2

# input Form: Entry = CCN1CCN(Cc2ccc(Nc3ncc(F)c(-c4cc(F)c5nc(C)n(C(C)C)c5c4)n3)nc2)CC1 + CNC(=O)c1ccc(Nc2nc(OC3CCCC3)c3c(-c4ccc5nc(C)oc5c4)c[nH]c3n2)c(OC)c1 | System = 616215-338-R-J1-PDC complex spheroids, viability % test/control | viability, T/C = ____
# output 47.9

# input Form: Entry = COC1C=CCC(C)C(C)S(=O)(=O)NC(=O)c2ccc3c(c2)N(CC2CCC21)CC1(CCCc2cc(Cl)ccc21)CO3 (stereo not given) + CNC(=O)c1ccc(Nc2nc(OC3CCCC3)c3c(-c4ccc5nc(C)oc5c4)c[nH]c3n2)c(OC)c1 | System = 616215-338-R-J1-PDC complex spheroids, viability % test/control | viability, T/C = ____
# output 33

# input Form: Entry = COc1ccc([C@@H](O)c2cc(-c3ncnc4cc(N5CCOCC5)ccc34)c(F)cc2Cl)nn1 + CNC(=O)c1ccc(Nc2nc(OC3CCCC3)c3c(-c4ccc5nc(C)oc5c4)c[nH]c3n2)c(OC)c1 | System = 616215-338-R-J1-PDC complex spheroids, viability % test/control | viability, T/C = ____
# output 39.4

# input Form: Entry = C=CC(=O)N1CCN(c2nc(=O)n(-c3c(C)ccnc3C(C)C)c3nc(-c4c(O)cccc4F)c(F)cc23)C(C)C1 (stereo not given) + CNC(=O)c1ccc(Nc2nc(OC3CCCC3)c3c(-c4ccc5nc(C)oc5c4)c[nH]c3n2)c(OC)c1 | System = 616215-338-R-J1-PDC complex spheroids, viability % test/control | viability, T/C = ____
# output 46.9
